Ref: patent EP2140864A2

Target: human 5HT1F (Homo sapiens, UniProt P30939)
Construct: expressed in transfected cells
Sequence (P30939 whole entry): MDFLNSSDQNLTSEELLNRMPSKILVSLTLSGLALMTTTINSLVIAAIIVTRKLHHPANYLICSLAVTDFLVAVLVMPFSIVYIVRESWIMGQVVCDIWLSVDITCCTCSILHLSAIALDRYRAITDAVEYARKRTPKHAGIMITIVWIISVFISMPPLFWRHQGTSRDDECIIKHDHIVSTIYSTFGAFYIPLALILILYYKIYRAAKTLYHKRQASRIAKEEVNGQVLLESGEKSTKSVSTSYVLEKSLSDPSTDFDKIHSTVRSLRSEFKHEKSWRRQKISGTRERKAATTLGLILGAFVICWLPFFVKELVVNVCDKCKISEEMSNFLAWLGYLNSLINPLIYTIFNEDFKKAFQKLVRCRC
Test: Radioligand binding, 5HT1F receptor ([3H]-serotonin)
Details: read-out: h5HT1F Ki; Table 7
Method: Human 5HT1B, 5HT1D, 5HT1E, 5HT1F, and 5HT7 Receptors: The cell lysates of LM(tk-) clonal cell line stably transfected with the genes encoding each of these 5HT receptor-subtypes were prepared as described above. […] Nonspecific binding was determined in the presence of 10 µM serotonin. […] Binding data were analyzed using nonlinear regression and statistical techniques available in the GraphPAD Prism package (San Diego, CA). […]
pKi: −log10 of the molar value.

{"columns": ["sample smiles", "pKi"],
 "data": [
  ["COC[C@@H]1[C@@H](c2ccccc2)OCCN1c1nc(Nc2ccc(C)cc2)cc(N2CCCCC2)n1", 5.05]
]}

----------
tested on: NE transporter; test: Binding at native NE transporter; settings: Table 8; Ki rNE Uptk divided by Ki hGAL3
Catalogue of selectivity ratio rNE Uptk readings, one per entry.
measurement type: selectivity ratio rNE Uptk

{"columns": ["molecule", "measured target", "measurement type", "result"],
 "data": [
  ["O=C1C(=Nc2ccc(Br)cc2)c2ccccc2N1c1ccccc1 [Example 98]", "NE transporter", "selectivity ratio rNE Uptk", ">100"],
  ["Cc1ccc(Nc2cc(N3CCCCC3)nc(N(C)CCc3ccccc3)n2)cc1 [Example 22]", "NE transporter", "selectivity ratio rNE Uptk", ">100"],
  ["O=C1C(=Nc2ccc(Cl)cc2)c2ccccc2N1c1ccccc1 [Example 97]", "NE transporter", "selectivity ratio rNE Uptk", ">30"],
  ["O=C1C(=Nc2cccc(Cl)c2)c2ccccc2N1c1ccccc1 [Example 94]", "NE transporter", "selectivity ratio rNE Uptk", ">30"],
  ["COc1cccc(Nc2cc(N3CCCCC3)nc(N(C)CCc3c[nH]c4ccccc34)n2)c1 [Example 17]", "NE transporter", "selectivity ratio rNE Uptk", ">100"],
  ["CN(CCc1c[nH]c2ccccc12)c1nc(Nc2ccc(F)c(F)c2)cc(N2CCCCC2)n1 [Example 15]", "NE transporter", "selectivity ratio rNE Uptk", ">100"],
  ["CN(C)c1cc(Nc2ccc(Cl)c(Cl)c2)nc(Nc2ccccc2)n1 [Example 60]", "NE transporter", "selectivity ratio rNE Uptk", ">100"],
  ["Cc1ccc(Nc2cc(N(C)C)nc(N(C)CCc3c[nH]c4ccccc34)n2)cc1 [Example 77]", "NE transporter", "selectivity ratio rNE Uptk", ">100"],
  ["Cc1ccc(Nc2cc(N3CCCCC3)nc(N(C)CCc3c[nH]c4ccccc34)n2)cc1 [Example 11]", "NE transporter", "selectivity ratio rNE Uptk", ">100"],
  ["O=C1C(=Nc2ccc(C(F)(F)F)cc2)c2ccccc2N1c1ccccc1 [Example 95]", "NE transporter", "selectivity ratio rNE Uptk", ">100"],
  ["Cc1ccc(Nc2cc(N3CCCCC3)nc(N3CCN(c4ncccc4C(F)(F)F)CC3)n2)cc1 [Example 34]", "NE transporter", "selectivity ratio rNE Uptk", ">100"]
]}

----------
molecular target: human 5HT7 (Homo sapiens, UniProt P34969); construct: expressed in transfected cells; assay: Radioligand binding, 5HT7 receptor ([3H]-serotonin); conditions: Table 7; read-out: h5HT7 Ki
Sequence (P34969 1-445 isoform P34969-2): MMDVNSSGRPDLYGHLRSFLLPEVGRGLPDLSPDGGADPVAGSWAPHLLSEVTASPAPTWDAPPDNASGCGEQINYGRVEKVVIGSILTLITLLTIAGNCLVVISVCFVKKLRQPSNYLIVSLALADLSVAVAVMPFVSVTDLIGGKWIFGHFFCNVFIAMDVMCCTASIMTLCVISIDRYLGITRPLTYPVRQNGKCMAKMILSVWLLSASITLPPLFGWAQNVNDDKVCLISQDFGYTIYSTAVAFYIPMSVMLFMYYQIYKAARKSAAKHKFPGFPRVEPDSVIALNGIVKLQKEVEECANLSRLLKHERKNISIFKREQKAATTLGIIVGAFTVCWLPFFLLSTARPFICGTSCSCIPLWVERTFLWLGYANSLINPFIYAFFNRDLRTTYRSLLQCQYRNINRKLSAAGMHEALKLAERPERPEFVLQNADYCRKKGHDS

{"columns": ["sample smiles", "Ki"],
 "data": [
  ["O=C1C(=Nc2cccc(Cl)c2)c2ccccc2N1c1ccccc1", "8.02 µM"],
  ["COc1cccc(Nc2cc(N3CCCCC3)nc(N(C)CCc3c[nH]c4ccccc34)n2)c1", "1.8 µM"],
  ["CN(C)c1cc(Nc2ccc(Cl)c(Cl)c2)nc(Nc2ccccc2)n1", "3.24 µM"],
  ["Cc1ccc(Nc2cc(N3CCCCC3)nc(N3CCN(c4ncccc4C(F)(F)F)CC3)n2)cc1", "4.44 µM"],
  ["Cc1ccc(Nc2cc(N3CCCCC3)nc(N(C)CCc3ccccc3)n2)cc1", "2.67 µM"],
  ["Cc1ccc(Nc2cc(N3CCCCC3)nc(N(C)CCc3c[nH]c4ccccc34)n2)cc1", "1.01 µM"],
  ["O=C1C(=Nc2ccc(C(F)(F)F)cc2)c2ccccc2N1c1ccccc1", "11.6 µM"],
  ["Cc1ccc(Nc2cc(N(C)C)nc(N(C)CCc3c[nH]c4ccccc34)n2)cc1", "1.55 µM"],
  ["O=C1C(=Nc2ccc(Br)cc2)c2ccccc2N1c1ccccc1", "8.46 µM"],
  ["CN(CCc1c[nH]c2ccccc12)c1nc(Nc2ccc(F)c(F)c2)cc(N2CCCCC2)n1", "2.53 µM"],
  ["O=C1C(=Nc2ccc(Cl)cc2)c2ccccc2N1c1ccccc1", "11.3 µM"]
]}

----------
Catalogue of Ki readings, one per entry.
Target: human GAL3 receptor (Homo sapiens)
Construct: expressed in transfected cells
Sequence (O60755 1-368): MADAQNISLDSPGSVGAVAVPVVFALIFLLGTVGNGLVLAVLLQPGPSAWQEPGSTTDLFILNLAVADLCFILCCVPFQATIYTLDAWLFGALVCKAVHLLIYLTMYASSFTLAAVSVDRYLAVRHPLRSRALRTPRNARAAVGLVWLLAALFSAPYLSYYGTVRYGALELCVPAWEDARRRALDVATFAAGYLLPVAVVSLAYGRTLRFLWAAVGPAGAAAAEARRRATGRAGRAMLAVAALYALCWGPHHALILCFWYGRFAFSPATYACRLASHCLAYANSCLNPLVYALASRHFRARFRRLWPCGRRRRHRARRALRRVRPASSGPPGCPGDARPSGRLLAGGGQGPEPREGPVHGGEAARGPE
Experiment: Radioligand binding at cloned human GAL3 receptor
Settings: pyrimidines, cloned human receptor; read-out: Ki GalR3

{"columns": ["molecule", "quantity unit", "Ki"],
 "data": [
  ["CC1CCC(Nc2cc(N(C)C)nc(N3CCN(Cc4ccccc4)CC3)n2)CC1 (stereo not shown) [Example 157]", "nM", 273],
  ["Cc1cc(C)cc(Nc2cc(N(C)C)nc(N3CCN(c4ccccn4)CC3)n2)c1 [Example 214]", "nM", 676],
  ["CN(C)c1cc(Nc2cccc(Cl)c2)nc(N2CCN(c3ccccn3)CC2)n1 [Example 224]", "nM", 218],
  ["Cc1ccc(Nc2cc(N3CCCCC3)nc(N3CCC(O)(c4ccccc4)CC3)n2)cc1 [Example 44]", "nM", 133]
]}

----------
Target: human GAL3 receptor (Homo sapiens)
Construct: expressed in transfected cells
Sequence (O60755 1-368): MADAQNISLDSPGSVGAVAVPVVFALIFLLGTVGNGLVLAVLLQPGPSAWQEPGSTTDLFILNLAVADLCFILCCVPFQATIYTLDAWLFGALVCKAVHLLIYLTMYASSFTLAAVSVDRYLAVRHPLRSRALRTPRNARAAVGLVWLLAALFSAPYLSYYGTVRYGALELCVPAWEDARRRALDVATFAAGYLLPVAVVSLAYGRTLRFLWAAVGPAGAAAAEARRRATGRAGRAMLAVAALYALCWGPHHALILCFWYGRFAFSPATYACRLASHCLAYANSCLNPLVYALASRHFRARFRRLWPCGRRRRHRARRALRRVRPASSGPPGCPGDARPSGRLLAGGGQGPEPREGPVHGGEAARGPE
Experiment: Radioligand binding at cloned human GAL3 receptor
Conditions: Table 9; read-out: hGAL3 Ki
pKi: −log10 of the molar value.
Catalogue of pKi readings, one per entry.
measurement type: pKi

{"columns": ["compound", "measured number"],
 "data": [
  ["Cc1ccc(Nc2cc(N3CCCCC3)nc(N3CCN(c4ncccc4C(F)(F)F)CC3)n2)cc1 [Example 34]", 7.64],
  ["CN(CCc1c[nH]c2ccccc12)c1nc(Nc2ccc(F)c(F)c2)cc(N2CCCCC2)n1 [Example 15]", 7.14],
  ["Cc1ccc(Nc2cc(N3CCCCC3)nc(N(C)CCc3c[nH]c4ccccc34)n2)cc1 [Example 11]", 7.04],
  ["COc1cccc(Nc2cc(N3CCCCC3)nc(N(C)CCc3c[nH]c4ccccc34)n2)c1 [Example 17]", 7.06],
  ["O=C1C(=Nc2ccc(Cl)cc2)c2ccccc2N1c1ccccc1 [Example 97]", 7.29],
  ["CN(C)c1cc(Nc2ccc(Cl)c(Cl)c2)nc(Nc2ccccc2)n1 [Example 60]", 7.07],
  ["O=C1C(=Nc2ccc(Br)cc2)c2ccccc2N1c1ccccc1 [Example 98]", 7.42],
  ["Cc1ccc(Nc2cc(N(C)C)nc(N(C)CCc3c[nH]c4ccccc34)n2)cc1 [Example 77]", 7.10]
]}

----------
target: rat D3 receptors (Rattus norvegicus, UniProt P19020); construct: purchased BioSignal, Inc. (Montreal, Canada); test: Radioligand binding, dopamine D3 receptor; settings: read-out: rD3 Ki; Table 9
Sequence (P19020 whole entry): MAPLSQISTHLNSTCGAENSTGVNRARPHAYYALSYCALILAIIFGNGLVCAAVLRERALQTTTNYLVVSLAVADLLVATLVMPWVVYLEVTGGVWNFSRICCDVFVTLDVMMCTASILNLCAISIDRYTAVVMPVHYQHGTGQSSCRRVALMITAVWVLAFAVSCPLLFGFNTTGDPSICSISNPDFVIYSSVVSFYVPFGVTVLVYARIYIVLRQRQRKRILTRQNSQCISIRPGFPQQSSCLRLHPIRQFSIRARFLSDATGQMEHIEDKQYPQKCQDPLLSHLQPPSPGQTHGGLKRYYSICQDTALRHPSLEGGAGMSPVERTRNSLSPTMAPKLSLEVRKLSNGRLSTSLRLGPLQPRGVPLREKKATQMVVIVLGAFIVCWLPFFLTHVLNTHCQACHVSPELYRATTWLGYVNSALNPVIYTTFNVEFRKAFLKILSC

{"columns": ["sample smiles", "quantity unit", "Ki"],
 "data": [
  ["COC[C@@H]1[C@@H](c2ccccc2)OCCN1c1nc(Nc2ccc(C)cc2)cc(N2CCCCC2)n1", "µM", 14]
]}
